All values here come from the supplement of paper PMC3545927.

- SYSTEM NAME: furin, P09958;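 also: purified furin at 1:10 enzyme:substrate in 50 mM HEPES pH 7.5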
- Sequence (P09958 whole entry): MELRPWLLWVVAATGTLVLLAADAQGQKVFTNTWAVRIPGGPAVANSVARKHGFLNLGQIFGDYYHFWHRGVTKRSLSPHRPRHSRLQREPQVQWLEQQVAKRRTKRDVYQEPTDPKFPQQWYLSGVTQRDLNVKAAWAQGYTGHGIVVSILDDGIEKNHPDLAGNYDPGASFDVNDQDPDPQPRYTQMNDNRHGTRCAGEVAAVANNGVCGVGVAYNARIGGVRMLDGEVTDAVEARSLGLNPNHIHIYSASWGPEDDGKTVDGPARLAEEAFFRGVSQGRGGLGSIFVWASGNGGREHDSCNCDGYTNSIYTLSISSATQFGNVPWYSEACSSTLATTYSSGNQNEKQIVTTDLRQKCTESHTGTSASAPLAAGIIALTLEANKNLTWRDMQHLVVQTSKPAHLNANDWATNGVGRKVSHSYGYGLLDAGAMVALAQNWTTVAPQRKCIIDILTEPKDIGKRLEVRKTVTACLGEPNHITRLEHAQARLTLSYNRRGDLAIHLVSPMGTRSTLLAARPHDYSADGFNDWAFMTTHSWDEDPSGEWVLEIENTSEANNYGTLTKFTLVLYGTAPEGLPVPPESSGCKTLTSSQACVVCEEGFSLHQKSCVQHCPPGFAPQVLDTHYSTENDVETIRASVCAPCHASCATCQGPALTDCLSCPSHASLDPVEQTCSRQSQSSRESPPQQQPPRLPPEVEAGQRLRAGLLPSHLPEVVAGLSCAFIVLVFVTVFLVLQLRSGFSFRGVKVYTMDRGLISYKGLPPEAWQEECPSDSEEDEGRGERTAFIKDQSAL
- PROTOCOL: furin cleavage Z-score vs untreated control; higher = more cleavage, active = 3.5 or more, inactive = 1 or less, 8 variable residues between constant flanks
- RUN CONDITIONS: 15 min
This is one part of the list. How many sequences the whole screen found active is unknown.
Hi there, I'd appreciate the recorded furin cleavage Z-score for every entry that follows.

Prompt: # input sequence: CAARAAWETAAGNASASA [HC1567] ; wanted: its furin cleavage Z-score
Response: 0.154 (inactive)

Prompt: Would you kindly share the measured furin cleavage Z-score for CAVYEAADAIAGNASASA [HC267] ?
Response: -0.395 (inactive)

Prompt: I'd like to know its furin cleavage Z-score. The sequence in question is CATPPRSKRVAGNASASA [FS-1096]
Response: 6.1 (active)

Prompt: I'd like to know its furin cleavage Z-score. The sequence in question is CARQKRAVATAGNASASA [FS-2360]
Response: 11.9 (active)

Prompt: # furin cleavage Z-score lookup, item CARKRRQTGQAGNASASA [FS-2701]
Response: 11.9 (active)

Prompt: Query: furin cleavage Z-score; subject: CARKRRETSQAGNASASA [FS-2347]
Response: 14.9 (active)

Prompt: So what does the record say about furin cleavage Z-score for CAARAQAPPPAGNASASA [HC958] ?
Response: -1.1 (inactive)

Prompt: Param item = CARRARHPGQAGNASASA [FS-2448] ; retrieve measured furin cleavage Z-score.
Response: -1.48 (inactive)

Prompt: Which furin cleavage Z-score is listed for CALLMCAVHPAGNASASA [HC598] ?
Response: -1.05 (inactive)
